Data origin, for the record: patent US10323038B2

target-of-assay: FAAH (Mus musculus (Mouse), UniProt O08914)
Sequence (O08914 whole entry): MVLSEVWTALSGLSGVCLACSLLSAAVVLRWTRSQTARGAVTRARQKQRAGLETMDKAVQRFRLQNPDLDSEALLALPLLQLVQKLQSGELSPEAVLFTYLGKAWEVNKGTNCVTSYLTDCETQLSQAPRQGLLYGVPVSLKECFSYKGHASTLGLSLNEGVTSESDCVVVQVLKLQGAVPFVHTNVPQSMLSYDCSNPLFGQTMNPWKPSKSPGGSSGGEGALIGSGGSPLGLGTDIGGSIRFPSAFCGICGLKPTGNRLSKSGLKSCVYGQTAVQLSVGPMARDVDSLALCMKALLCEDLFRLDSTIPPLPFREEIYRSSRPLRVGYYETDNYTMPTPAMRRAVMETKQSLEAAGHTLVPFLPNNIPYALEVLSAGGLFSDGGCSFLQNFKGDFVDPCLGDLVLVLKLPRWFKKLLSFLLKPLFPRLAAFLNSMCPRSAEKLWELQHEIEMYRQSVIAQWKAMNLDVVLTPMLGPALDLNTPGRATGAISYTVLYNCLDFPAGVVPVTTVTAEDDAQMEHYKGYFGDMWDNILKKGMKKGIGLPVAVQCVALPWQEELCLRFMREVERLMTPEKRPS
procedure-summary: In vitro competitive activity-based protein profiling, FAAH (mouse)
Format: biochemical
applied-conditions: 1 μM, read-out: FAAH % inh. 1 μM (mouse)
result-type: inhibition at 1 µM

A selection of reference data follows.
CC(=O)N(C)c1cnn(C(=O)N2CCC3(CCN(Cc4cccc(N5CCOCC5)c4)C3)C2)c1 (stereo not shown) ... 25 to 50%
CC(=O)N(C)c1cnn(C(=O)N2C[C@H]3C[C@H](N(C)Cc4cc(Cl)ccc4C(F)(F)F)C[C@H]3C2)c1 ... ≥ 75%
CC(=O)N(C)c1cnn(C(=O)N2CC3CN(Cc4ccc(N5CCCC5)c(C(F)(F)F)c4)CC3C2)c1 (stereo not shown) ... ≥ 75%
CC(=O)N(C)c1cnn(C(=O)N2CCN(Cc3ccc(C(F)(F)F)cc3N3C4CCC3COC4)CC2)c1 ... 0 to 25%
CC(=O)N(C)c1cnn(C(=O)N2CCN(Cc3cccc(C)c3)CC2)c1 ... ≥ 75%
CS(=O)(=O)Nc1cnn(C(=O)N2CCN(Cc3cc(Cl)cc(C(F)(F)F)c3)CC2)c1 ... ≥ 75%

Read the next record carefully.
Which measured inhibition at 1 µM value corresponds to CC(=O)N(C)c1cnn(C(=O)N2CC3CN(Cc4ccc(OC(C)C)cc4Cl)CC3C2)c1 (stereo not shown) ?
≥ 75%
